This listing pairs binders with measured raw competing-Ab binding signal.
target: T1, human Sdc2 (human, UniProt P34741 19-144, limits assumed); test: Octet tandem binning; saturating Ab f9 19838-6-E17-A
T1 construct: Antigen of the Octet tandem binning, loaded on biosensors at 100 nM; also called huSdc2; hSdc2
T1 sequence (P34741 19-144 limits assumed): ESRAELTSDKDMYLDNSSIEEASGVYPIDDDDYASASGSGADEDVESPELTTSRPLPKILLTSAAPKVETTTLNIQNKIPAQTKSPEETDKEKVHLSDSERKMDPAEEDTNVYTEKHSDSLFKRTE
Keep the answer to the number alone.

Previously resolved entries follow.
{"columns": ["Binder", "raw competing-Ab binding signal"],
 "data": [
  ["R3-P3-E09 (antibody, human IgG1, kappa, V domains shown, human IgG1 kappa from the phage campaign) VH: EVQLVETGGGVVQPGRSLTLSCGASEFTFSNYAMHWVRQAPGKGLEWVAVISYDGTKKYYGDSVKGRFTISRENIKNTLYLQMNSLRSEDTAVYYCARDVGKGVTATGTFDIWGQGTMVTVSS VL: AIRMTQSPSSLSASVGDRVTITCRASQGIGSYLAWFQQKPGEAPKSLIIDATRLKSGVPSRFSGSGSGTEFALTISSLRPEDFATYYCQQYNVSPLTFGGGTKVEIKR", 0.376],
  ["19838-6-N03-A (antibody, IgG1, V domains shown) VH: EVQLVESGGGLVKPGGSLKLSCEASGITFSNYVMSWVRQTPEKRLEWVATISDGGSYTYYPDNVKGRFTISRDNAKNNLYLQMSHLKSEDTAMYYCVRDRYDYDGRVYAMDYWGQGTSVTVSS VL: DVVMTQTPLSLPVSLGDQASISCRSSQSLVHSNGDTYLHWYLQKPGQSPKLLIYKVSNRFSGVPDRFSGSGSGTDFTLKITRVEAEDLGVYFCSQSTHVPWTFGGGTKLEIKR", 0.378],
  ["8-G17-A (antibody, V domains shown, PentaMice hybridoma clone, made recombinantly in CHO cells) VH: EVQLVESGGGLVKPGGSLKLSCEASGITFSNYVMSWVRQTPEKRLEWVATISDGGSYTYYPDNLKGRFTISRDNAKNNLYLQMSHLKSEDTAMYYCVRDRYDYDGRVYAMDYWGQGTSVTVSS VL: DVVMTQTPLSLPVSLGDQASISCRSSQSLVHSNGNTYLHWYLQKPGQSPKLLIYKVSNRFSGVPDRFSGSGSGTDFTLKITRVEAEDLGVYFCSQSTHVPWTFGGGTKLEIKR", 0.79],
  ["6-N03-A (antibody, mouse IgG1, kappa, V domains shown) VH: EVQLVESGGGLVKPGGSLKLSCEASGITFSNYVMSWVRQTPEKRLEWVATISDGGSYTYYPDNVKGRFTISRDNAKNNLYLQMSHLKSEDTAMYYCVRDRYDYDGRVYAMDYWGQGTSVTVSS VL: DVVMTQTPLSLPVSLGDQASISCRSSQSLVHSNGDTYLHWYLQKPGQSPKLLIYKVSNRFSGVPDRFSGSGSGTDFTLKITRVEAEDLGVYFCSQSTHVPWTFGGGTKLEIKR", 0.422]
]}

Switching to the query record.
Query: Item R4M-P1-A10 (antibody, human IgG1, kappa, V domains shown) VH: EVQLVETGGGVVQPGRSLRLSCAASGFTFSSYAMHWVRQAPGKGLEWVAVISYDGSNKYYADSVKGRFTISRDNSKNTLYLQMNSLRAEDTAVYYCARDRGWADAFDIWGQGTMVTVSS VL: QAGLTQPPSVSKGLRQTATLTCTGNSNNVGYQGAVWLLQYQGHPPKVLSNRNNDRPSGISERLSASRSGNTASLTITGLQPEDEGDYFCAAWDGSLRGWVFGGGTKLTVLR has what recorded raw competing-Ab binding signal?
Result: 0.34
